Tested system: T1, Activin A (UniProt P08476 311-426)
T1 sequence (looked up): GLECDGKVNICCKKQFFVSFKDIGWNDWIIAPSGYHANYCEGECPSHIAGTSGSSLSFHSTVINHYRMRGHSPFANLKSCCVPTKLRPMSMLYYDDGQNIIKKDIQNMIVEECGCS
Experimental details: SPR (Biacore 3000), Fc fusion captured, ligand in solution
Measurement label: pKd
// pKd here means minus log10 of the molar concentration (mol/L)

[[record]]
binder = "ActRIIBΔ9 variant (SEQ ID NO: 3)-Fc (Fc fusion, not shown: a dimerising Fc or GST, Engineered variant of the human ActRIIB extracellular portion) GRGEAETRECIYYNANWELDRTNQSGLERCEGEQDKRLHCYASWRNSSGTIELVKKGCWLDDINCYDRQECVATKENPQVYFCCCEGNFCNERFTHLPEAGGPEVTYEPPPTAPT"
measurement_label = "pKd"
measured_value = 6.41


Turning to the following binder.
Input line: Using the record for ActRIIB 2.06 variant (SEQ ID NO: 9)-Fc (Fc fusion, not shown: a dimerising Fc or GST, Engineered variant of the human ActRIIB extracellular portion; recombinant protein; also called ActRIIB variant 2.06-hFc) GRGEAETRECIYYNANWELERTNQSGLERCEGEQDKRLHCFASWKNSSGTIELVKQGCWLDDFNCYDRQECVAKKDSPEVYFCCCEGNFCNERFTHLPEAGGPEVTYEPPPTAPT , report its pKd.
Output line: 10.28
